test system: Streptococcus pyogenes; experiment: Minimum inhibitory concentration was evaluated in vitro againist P. Streptococcus pyogenes C-203; format: functional
Each entry below carries its reported MIC.
Unit µM implied. Number only.

The following molecules have reported results that may help.
{"smiles code": "CCCCCCCCCCCCCCCC(=O)NNC(=O)C[n+]1ccccc1", "MIC, µM": 9.1}
{"smiles code": "CCCCCCCCCCCCCCCCCC(=O)NNC(=O)C[n+]1ccccc1", "MIC, µM": 1.1}
{"smiles code": "CCCCCCCC(=O)NNC(=O)C[n+]1ccccc1", "MIC, µM": 1600}
{"smiles code": "CCCCCCCCCC(=O)NNC(=O)C[n+]1ccccc1", "MIC, µM": 370}

Quick one: MIC for CCCCCCCCCCCC(=O)NNC(=O)C[n+]1ccccc1 ?
42

Quick one: MIC for CCCCCCCCCCCCCC(=O)NNC(=O)C[n+]1ccccc1 ?
9.8

Quick one: MIC for CCCCCCCC/C=C\CCCCCCCC(=O)NNC(=O)C[n+]1ccccc1 ?
1.1
